Reference source: the supplement of paper PMC9170038

tested on: MS2 coat protein; assay: apparent KD of MS2 coat protein; designed switch direction (-1 OFF switch, 1 ON switch): 1; higher = weaker reporter binding; conditions: input ligand: FMN 200 uM
Everything with apparent KD of MS2 coat protein lower than 0.2 µM is NO; everything else, including exactly 0.2 µM, is YES.

Examples with answers:
UUGCGGGCUUGAGGAUAUUGAGUACAUAUGUUUAACAUGAGGAUCACCCAUGUGGGUUGCGGUAUCGAGAAGGUAACUUCCUCC [salish99_SSNG2_r04_809] (Eterna round: R96, puzzle: Same State NG 2): NO
UUGAAGAAUUAAGGAUAUCGAGUCAAGAUGUUAAACAUGAGGAUCACCCAUGUGGGUUGCGGUAUCGAGAAGGUAAAUAACAAG [Mat - Same State NG 2 - JL mod - D53] (Eterna round: R96, puzzle: Same State NG 2): NO
AUUUCUAAUGCAGGAUAUGAUUAACAUGAGGAUCACCCAUGUGGUGUUGUGAGUAAGGAGAGUGAUCAGAAGGGCAUUUUUUUU [JMF's solution 99] (Eterna round: R96, puzzle: Same State NG 2): YES
CUGAGCAAGCAAGGAUAUCACGUCGAUUAGACGUGAGAAGGUGCUCCUUACAUGAGGAUCACCCAUGUAUAACAUGAAGCUCAG [SSNG1/10-A2] (Eterna round: R96, puzzle: Same State NG 1): NO
GAAUAAAUGAUAGGAUAUACAUGAGGAAUUCUCGUAGAAGGAUCAUGACAUGAGGAUCACCCAUGUAACGCUCGAAAGAGCGUA [Mat - Same State NG 1 - JL mod - D41] (Eterna round: R96, puzzle: Same State NG 1): YES

Assess whether reported apparent KD of MS2 coat protein for AGCUAGUACCGAGGAUAUACAUACAUGAGGAUCACCCAUGUAUACAUGAUUUAAUGAGACUACAUGUAGAAGGCGGUACUAGCA [JL SSNG2 1.23] (Eterna round: R96, puzzle: Same State NG 2) sits at 0.2 µM or higher.
NO

Assess whether reported apparent KD of MS2 coat protein for GCUCGCACGAUGACCCACAUGAGGAUCACCCAUGUGCUUGGGCAGGAUAUCUAGAUUAAGGAUGUAGAGAAGGGUUGAGCGAGC [SameState NG3 #27] (Eterna round: R96, puzzle: Same State NG 3) sits at 0.2 µM or higher.
YES

Assess whether reported apparent KD of MS2 coat protein for AUUUUAGUCAGAGGAUAUUGUUUAUCUCUAUUACAAGAAGGCUGAUCUUACUACCCACUUAUGAAACAUGAGGAUCACCCAUGU [JR_SSNG1_Sub016] (Eterna round: R96, puzzle: Same State NG 1) sits at 0.2 µM or higher.
NO

Assess whether reported apparent KD of MS2 coat protein for GUGCUCGUGUGAGGAUAUGUUGCCGGGUCGGCUGCAGAAGGUACUAUUAUACAUGAGGAUCACCCAUGUCGCUUUUCUCCGGUA [salish99_SSNG1_r04_921] (Eterna round: R96, puzzle: Same State NG 1) sits at 0.2 µM or higher.
NO

====

Field: apparent KD of MS2 coat protein. Provide a value for each of the sequences that follow.
system: MS2 coat protein; test: apparent KD of MS2 coat protein; designed switch direction (-1 OFF switch, 1 ON switch): -1; higher = weaker reporter binding; settings: input ligand: FMN 200 uM

AGCGCUUACGUAGGAUAUGCAUGAGGAUCACCCAUGCAACCACAUUUAACAUGAGGAUCACCCAUGUAGAAGGACGGGUGCGCA [pwkr exNG2 2xF5 1xFMN.2] (Eterna round: R96, puzzle: Exclusion NG 2): 0.0678 µM

Read the next record carefully.
Lab note: CUUUUGUGAGGAUAUUAGUAGUAAAUGAAUAAAAUUAUUACUAAGAAGGCACAUGAGGAUCACCCAUGUUCCUC [Mat - Exclusion 4 - Eli Mod - D1] (Eterna round: R97, puzzle: Exclusion 4) gave apparent KD of MS2 coat protein of 0.393 µM
